Sourced from ChEMBL document CHEMBL2169849

# System: Schistosoma mansoni
# EXPERIMENTAL_DETAILS: Antischistosomal activity against adult Schistosoma mansoni infected NMRI mouse adult infection model assessed as reduction in total worm burden at 400 mg/kg administered as single dose starting from 49 days post infection
# Type: functional
# Parameters: scale not given: the % may be the effect or the level left
Each entry gets label 0 if its Activity stays under 5%, and label 1 if its Activity is 5% or above.

1. COc1ccc([C@]23OO[C@@]4(C)OC(C)(CCC42)O3)cc1    label 1
2. CC(C)(C)OOC(C#N)(C#N)Cc1ccccc1    label 0
3. CC12CCC3[C@@](C)(OO[C@]3(c3ccccc3)O1)O2    label 1
4. C[C@]12OO[C@](C)(OO1)C2C12CC3CC(CC(C3)C1)C2 (stereo partly drawn)    label 1
5. CC12CCC3(Cc4ccc([N+](=O)[O-])cc4)[C@@](C)(OO[C@]3(C)O1)O2    label 0
6. CC12CCC3[C@@](C)(OO[C@]3(c3ccc(Br)cc3)O1)O2    label 1
7. Cc1ccc(CC23CCC4(C)O[C@]2(C)OO[C@]3(C)O4)cc1    label 0
